biological target: BTK C481S protein (Homo sapiens (Human), UniProt Q06187, C481S); test: BTK C481S HTRF displacement assay; conditions: 1-hour incubation
Sequence (Q06187 2-659 C481S): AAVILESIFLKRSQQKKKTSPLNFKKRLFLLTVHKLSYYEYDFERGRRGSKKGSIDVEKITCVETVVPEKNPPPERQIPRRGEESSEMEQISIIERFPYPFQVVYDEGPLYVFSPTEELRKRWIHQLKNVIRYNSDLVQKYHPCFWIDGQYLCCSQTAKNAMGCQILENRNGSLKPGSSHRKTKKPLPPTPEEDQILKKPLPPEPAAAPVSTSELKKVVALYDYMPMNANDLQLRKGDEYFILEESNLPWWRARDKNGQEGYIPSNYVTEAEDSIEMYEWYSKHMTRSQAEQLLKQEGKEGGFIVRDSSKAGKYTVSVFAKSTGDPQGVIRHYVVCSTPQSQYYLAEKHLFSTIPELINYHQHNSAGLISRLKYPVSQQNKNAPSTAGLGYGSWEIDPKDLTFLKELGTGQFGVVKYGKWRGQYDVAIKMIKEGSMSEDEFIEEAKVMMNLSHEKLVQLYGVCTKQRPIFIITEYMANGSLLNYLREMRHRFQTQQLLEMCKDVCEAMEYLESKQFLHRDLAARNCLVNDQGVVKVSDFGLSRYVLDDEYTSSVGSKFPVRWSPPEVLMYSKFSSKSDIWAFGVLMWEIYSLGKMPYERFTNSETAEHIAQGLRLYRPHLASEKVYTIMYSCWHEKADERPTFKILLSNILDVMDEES
pIC50: −log10 of the molar value.
Reported pIC50 values for a set of compounds

Consider the worked cases shown below.
{"compound": "CN(C(=O)n1cnc(Cl)n1)C1CCCC(n2nc(-c3ccc(Oc4ccccc4)cc3)c3c(N)ncnc32)C1 (stereo not drawn)", "meas.value": "≥ 6.00"}
{"compound": "COc1ccc(F)cc1C(=O)NCc1ccc(-c2nn(C(Cc3ccccc3)CN(C)C(=O)n3cncn3)c3ncnc(N)c23)cc1 (stereo not drawn)", "meas.value": "< 6.00"}
{"compound": "COc1ccc(F)cc1C(=O)NCc1ccc(-c2nn(C(C)CC3CCCCN3C(=O)n3cncn3)c3ncnc(N)c23)cc1 (stereo not drawn)", "meas.value": "< 6.00"}
{"compound": "COc1ccc(F)cc1C(=O)NCc1ccc(-c2nn([C@@H]3CCC[C@H](N(C)C(=O)n4cncn4)C3)c(N)c2C(N)=O)cc1 (relative stereo)", "meas.value": "≥ 6.00"}

Problem: Given the compound COc1ccc(F)cc1C(=O)NCc1ccc(-c2nn(CC3CN(C)CCN3C(=O)n3cncn3)c3ncnc(N)c23)cc1 (stereo not drawn) , what is its reported pIC50?
Result: < 6.00

Problem: Given the compound COc1ccc(F)cc1C(=O)NCc1ccc(-c2nn(C(CC3CCCC3)CN(C)C(=O)n3cncn3)c3ncnc(N)c23)cc1 (stereo not drawn) , what is its reported pIC50?
Result: < 6.00

---

target: BTK C481S protein (Homo sapiens (Human), UniProt Q06187, C481S); assay: BTK C481S HTRF displacement assay; conditions: 1-hour incubation
pIC50: −log10 of the molar value.
Reported pIC50 values for a set of molecules

{"molecule": "CCN(C(=O)n1cncn1)C1CCC(n2nc(-c3ccc(Oc4ccccc4)cc3)c3c(N)ncnc32)C1 (stereo not shown) [Compound 179]", "target.system": "BTK C481S protein (Homo sapiens (Human), UniProt Q06187, C481S)", "quantity.name": "pIC50", "meas.value": "≥ 6.00"}
{"molecule": "CN(C(=O)n1cncn1)C1CCCC1C1CCNc2c(C(N)=O)c(-c3ccc(Oc4ccccc4)cc3)nn21 (stereo not shown) [Compound 235]", "target.system": "BTK C481S protein (Homo sapiens (Human), UniProt Q06187, C481S)", "quantity.name": "pIC50", "meas.value": "< 6.00"}
{"molecule": "COc1ccc(F)cc1C(=O)NCc1ccc(-c2nn(C3CCCCN(C(=O)n4cncn4)C3)c(N)c2C(N)=O)cc1 (stereo not shown) [Compound 256]", "target.system": "BTK C481S protein (Homo sapiens (Human), UniProt Q06187, C481S)", "quantity.name": "pIC50", "meas.value": "≥ 6.00"}

Switching to the query record.
Problem: Given the molecule NC(=O)c1c(-c2ccc(Oc3ccccc3)cc2)nn2c1NCCC2C1CCN(C(=O)n2cncn2)C1 (stereo not shown) [Compound 282] , what is its reported pIC50?
Result: ≥ 6.00

---

target: BTK C481S protein (Homo sapiens (Human), UniProt Q06187, C481S); experiment: BTK C481S HTRF displacement assay; type: binding; details: 1-hour incubation
pIC50: −log10 of the molar value.
quantity.name: pIC50

Consider the worked cases shown below.
{"compound": "COc1ccc(F)cc1C(=O)NCc1ccc(-c2nn(C3CCCCC3CN(C)C(=O)n3cncn3)c3ncnc(N)c23)cc1 (centres unmarked) [Compound 198]", "quantity.name": "pIC50", "meas.value": "≥ 6.00"}
{"compound": "COc1ccc(C)cc1C(=O)NCc1ccc(-c2nn(C3CCC(N(C)C(=O)n4cncn4)CC3)c3ncnc(N)c23)cc1 (centres unmarked) [Compound 258]", "quantity.name": "pIC50", "meas.value": "≥ 6.00"}
{"compound": "Cc1[nH]c2c(C(N)=O)cc(F)c(N3CCC4(CC3)CCN4C(=O)n3cncn3)c2c1C [Compound 142]", "quantity.name": "pIC50", "meas.value": "≥ 6.00"}
{"compound": "COc1nn(C)cc1Nc1nc(N2CCCC3(CCN3C(=O)n3cncn3)C2)nc2c1ncn2C (centres unmarked) [Compound 102]", "quantity.name": "pIC50", "meas.value": "< 6.00"}
{"compound": "CCN(C(=O)n1cncn1)C1CCCC(n2nc(-c3ccc(Oc4ccccc4)cc3)c3c(N)ncnc32)C1 (centres unmarked) [Compound 109]", "quantity.name": "pIC50", "meas.value": "≥ 6.00"}

Switching to the query record.
Problem: # query: pIC50 | item COc1ccc(F)cc1C(=O)NCc1ccc(-c2nn(-c3cccc(N(C)C(=O)n4cncn4)c3)c3ncnc(N)c23)cc1 [Compound 187] | system: BTK C481S protein (Homo sapiens (Human), UniProt Q06187, C481S)
Result: ≥ 6.00
